# Assay name: Pharmacokinetics IV/PO in dogs
# Format: in vivo, beagle dogs
# Conditions used: beagle, plasma; dog PO 4 mg/kg
Measured quantity: Tmax (h)
Quick reminder: number only, in h, skip the unit.

Lookup: So what does the record say about Tmax for COc1ccc2cc(C=Cc3ccc(N(C)C)cc3)oc2c1 ?
Found: 1

* * *

# Assay name: Pharmacokinetics IV/PO in dogs
# Assay type: in vivo, beagle dogs
# Conditions used: beagle, plasma; dog IV 1 mg/kg
Measured quantity: half-life (h)
Write it as a number; the unit h goes unstated.

Lookup: Consider the compound shown here: COc1ccc2cc(C=Cc3ccc(N(C)C)cc3)oc2c1 What is its recorded half-life?
Found: 8.1
